# protocol.details: BET inhibitor-based combinations targeting novel dependencies in MECOM-rearranged (r) AML: UCSD-AML1 cell line (AID 2202235); note: nearly all actives have a fitted effect of over 40% in size
# test.parameters: UCSD-AML1 AML cells viability, CellTiter-Glo, 48 h; series mostly up to 46 µM
Records with an inconclusive call do not appear. Activity calls are given as the source filed them. Calls come from the whole dose curve; as a rule, active = well fitted inhibition curve with a large enough effect; inconclusive = small, poorly fitted or top-dose-only effect; inactive = no such curve, though single readings can be large or run the other way.
Would you mind answering with one of these outcomes? Yes for active, No for inactive

{"columns": ["compound", "classification"],
 "data": [
  ["NC(=O)N1CCC(CC(=O)N2CCC([C@H]3c4ncc(Br)cc4CCc4cc(Cl)cc(Br)c43)CC2)CC1", "Yes"],
  ["CCC(CC)C(c1ccc(Nc2nc3ccccc3s2)cc1)n1cncn1 (stereo not given)", "No"],
  ["Clc1ccc(C(Cn2ccnc2)OCc2c(Cl)cccc2Cl)c(Cl)c1 (stereo not given)", "No"],
  ["Cc1ccc(NC(=O)c2ccc(CN3CCN(C)CC3)cc2)cc1Nc1nccc(-c2cccnc2)n1", "No"],
  ["N#Cc1cc(NC(=O)Nc2nnc(-c3ccncc3)s2)ccc1-c1cn[nH]c1", "No"],
  ["NNCCc1ccccc1", "No"]
]}

query: What did the test return for "Cn1cnc(=N)c2[nH]cnc21" ?
result: No

query: What did the test return for "COc1ccc(C=Cc2cc(OC)c(OC)c(OC)c2)cc1NC(=O)[C@H](N)CO" ?
result: Yes

query: What did the test return for "Cc1ncc(NC(=O)c2ccc(CN3CCN(C)CC3)c(C(F)(F)F)c2)cc1Nc1nccc(-c2cccnc2)n1" ?
result: No

query: What did the test return for "OCc1ccc(-c2nn(Cc3ccccc3)c3ccccc23)o1" ?
result: Yes

query: What did the test return for "O=C(O)c1c(Cl)c(Cl)c(Cl)c(Cl)c1-c1c2cc(I)c(=O)c(I)c-2oc2c(I)c(O)c(I)cc12" ?
result: Yes

query: What did the test return for "CC(C)C[C@H](NC(=O)[C@H](CCc1ccccc1)NC(=O)CN1CCOCC1)C(=O)N[C@@H](Cc1ccccc1)C(=O)N[C@@H](CC(C)C)C(=O)[C@@]1(C)CO1" ?
result: Yes

Reference source for all entries: PubChem BioAssay (NCATS)
